Tested on: Hairpin
ASSAY NOTES: CD melting experiments, hairpin DNA duplex
DETAILS: 2 molar equiv compound, T1/2 of DNA alone 66.0 °C
VALUE KIND: ΔT1/2 Hairpin (°C)
Numbers only, in °C.

Record excerpt, results attached:
INSERT INTO results (compound, value_kind, endpoint_value) VALUES
  ('COc1ccc2cc3[n+](cc2c1OCCCn1cc(-c2ccc(S(N)(=O)=O)cc2)nn1)CCc1cc2c(cc1-3)OCO2 [Compound 28]', 'ΔT1/2 Hairpin', -2.0),
  ('COc1ccc2cc3[n+](cc2c1OCCCCn1cc(-c2ccc(S(N)(=O)=O)cc2)nn1)CCc1cc2c(cc1-3)OCO2 [Compound 30]', 'ΔT1/2 Hairpin', -1.0),
  ('COc1ccc2cc3[n+](cc2c1OCc1cn(CCCCOc2ccc4ccc(=O)oc4c2)nn1)CCc1cc2c(cc1-3)OCO2 [Compound 43]', 'ΔT1/2 Hairpin', -0.5),
  ('COc1ccc2cc3[n+](cc2c1OCCCCn1cc(CCOc2ccc4ccc(=O)oc4c2)nn1)CCc1cc2c(cc1-3)OCO2 [Compound 38]', 'ΔT1/2 Hairpin', -2.0);

Proceed to the following item.
Respond only with ΔT1/2 Hairpin recorded for COc1ccc2cc3[n+](cc2c1OCCCCCn1cc(-c2ccc(S(N)(=O)=O)cc2)nn1)CCc1cc2c(cc1-3)OCO2 [Compound 32]
-1.0

###

TARGET SYSTEM: hCA IX (Homo sapiens)
Construct: made in house
ASSAY NOTES: stopped-flow CO2 hydrase assay, hCA IX
Format: biochemical
DETAILS: hCA IX over hCA II
For each record, write down the corresponding Selectivity index (SI) II/IX.
Answers are plain numbers.

INSERT INTO measurements (compound, value_kind, endpoint_value) VALUES
  ('COc1ccc2cc3[n+](cc2c1OCCCn1cc(-c2ccc(S(N)(=O)=O)cc2)nn1)CCc1cc2c(cc1-3)OCO2 [Compound 28]', 'Selectivity index (SI) II/IX', 91.5);

Proceed to the following item.
Respond only with Selectivity index (SI) II/IX recorded for COc1ccc2cc3[n+](cc2c1OCCCCCn1cc(-c2ccc(S(N)(=O)=O)cc2)nn1)CCc1cc2c(cc1-3)OCO2 [Compound 32]
65.8

###

TARGET SYSTEM: hCA IX (Homo sapiens, UniProt Q16790)
Construct: made in house
ASSAY NOTES: stopped-flow CO2 hydrase assay, hCA IX
Type: biochemical
DETAILS: sulphonamides; inhibitor-enzyme incubation 15 min; mean ± SEM of three assays
VALUE KIND: Ki (nM)
One number for each entry, in nM.

For each of the molecules below, note its Ki.
1. COc1ccc2cc3[n+](cc2c1OCCCCCn1cc(COc2ccc(S(N)(=O)=O)cc2)nn1)CCc1cc2c(cc1-3)OCO2
2. COc1ccc2cc3[n+](cc2c1OCc1cn(-c2ccc(S(N)(=O)=O)cc2)nn1)CCc1cc2c(cc1-3)OCO2
3. COc1ccc2cc3[n+](cc2c1OCCCn1cc(COc2ccc(S(N)(=O)=O)cc2)nn1)CCc1cc2c(cc1-3)OCO2
4. COc1ccc2cc3[n+](cc2c1OCCCS(N)(=O)=O)CCc1cc2c(cc1-3)OCO2

[0.54, 2.7, 0.56, 17.8]

###

TARGET SYSTEM: hCA XII (Homo sapiens)
Construct: made in house
Sequence (O43570 25-354): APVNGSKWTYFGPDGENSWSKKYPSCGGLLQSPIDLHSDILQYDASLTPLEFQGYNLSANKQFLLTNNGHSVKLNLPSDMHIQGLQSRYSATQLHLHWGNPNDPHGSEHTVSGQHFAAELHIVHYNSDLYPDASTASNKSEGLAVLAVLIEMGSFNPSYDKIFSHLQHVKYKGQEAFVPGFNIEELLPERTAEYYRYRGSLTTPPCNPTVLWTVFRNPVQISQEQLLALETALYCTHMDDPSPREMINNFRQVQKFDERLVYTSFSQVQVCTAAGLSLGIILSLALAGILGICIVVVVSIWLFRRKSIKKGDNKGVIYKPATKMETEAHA
ASSAY NOTES: stopped-flow CO2 hydrase assay, hCA XII
Format: biochemical
DETAILS: hCA XII over hCA I
VALUE KIND: Selectivity index (SI) I/XII

Record excerpt, results attached:
INSERT INTO assay_data (smiles_data, endpoint_value) VALUES
  ('COc1ccc2cc3[n+](cc2c1OCc1cn(CCCOc2ccc4ccc(=O)oc4c2)nn1)CCc1cc2c(cc1-3)OCO2', '> 980.4'),
  ('COc1ccc2cc3[n+](cc2c1OCCCCn1cc(-c2ccc(S(N)(=O)=O)cc2)nn1)CCc1cc2c(cc1-3)OCO2', 23.2),
  ('COc1ccc2cc3[n+](cc2c1OCCCCCn1cc(-c2ccc(S(N)(=O)=O)cc2)nn1)CCc1cc2c(cc1-3)OCO2', 31.3);

For each of the molecules below, note its Selectivity index (SI) I/XII.
1. COc1ccc2cc3[n+](cc2c1OCCCn1cc(COc2ccc4ccc(=O)oc4c2)nn1)CCc1cc2c(cc1-3)OCO2
2. COc1ccc2cc3[n+](cc2c1OCc1cn(CCCCCOc2ccc4ccc(=O)oc4c2)nn1)CCc1cc2c(cc1-3)OCO2
3. COc1ccc2cc3[n+](cc2c1OCCCn1cc(-c2ccc(S(N)(=O)=O)cc2)nn1)CCc1cc2c(cc1-3)OCO2
4. COc1ccc2cc3[n+](cc2c1OCCCCCn1cc(COc2ccc(S(N)(=O)=O)cc2)nn1)CCc1cc2c(cc1-3)OCO2

1: > 332.2; 2: > 689.7; 3: 62.3; 4: 75.7

###

For each record, write down the corresponding ΔΔT1/2 Tel23.
Test system: Tel23
ASSAY NOTES: CD melting experiments, Tel23 GQ
Type: binding, human
DETAILS: ΔT1/2 of compound minus ΔT1/2 of berberine, 2 molar equiv
Procedure: The 21 synthesised MTDLs were screened for their ability to bind to and stabilise DNA GQ-forming sequences, compared to berberine, by CD experiments. […] Afterwards, the GQ-stabilising properties of the molecules were assessed by CD melting experiments, measuring the differences in the apparent melting temperatures of the DNA in the presence and absence of compounds (ΔT1/2) (Figures S4–S6 and Table S2, Supporting Information). […]
One number for each entry, in °C.

INSERT INTO measurements (compound, value_kind, reading_unit, endpoint_value) VALUES
  ('COc1ccc2cc3[n+](cc2c1OCc1cn(CCCOc2ccc4ccc(=O)oc4c2)nn1)CCc1cc2c(cc1-3)OCO2 [Compound 42]', 'ΔΔT1/2 Tel23', '°C', 1.0),
  ('COc1ccc2cc3[n+](cc2c1OCCCCn1cc(CCOc2ccc4ccc(=O)oc4c2)nn1)CCc1cc2c(cc1-3)OCO2 [Compound 38]', 'ΔΔT1/2 Tel23', '°C', '−2.0'),
  ('COc1ccc2cc3[n+](cc2c1OCCCCn1cc(COc2ccc4ccc(=O)oc4c2)nn1)CCc1cc2c(cc1-3)OCO2 [Compound 37]', 'ΔΔT1/2 Tel23', '°C', '−0.5'),
  ('COc1ccc2cc3[n+](cc2c1OCc1cn(CCCCOc2ccc4ccc(=O)oc4c2)nn1)CCc1cc2c(cc1-3)OCO2 [Compound 43]', 'ΔΔT1/2 Tel23', '°C', '−2.5'),
  ('COc1ccc2cc3[n+](cc2c1OCc1cn(-c2ccc(S(N)(=O)=O)cc2)nn1)CCc1cc2c(cc1-3)OCO2 [Compound 41]', 'ΔΔT1/2 Tel23', '°C', '−4.0');

For each of the compounds below, note its ΔΔT1/2 Tel23.
1. COc1ccc2cc3[n+](cc2c1OCCn1cc(COc2ccc(S(N)(=O)=O)cc2)nn1)CCc1cc2c(cc1-3)OCO2 [Compound 27]
2. COc1ccc2cc3[n+](cc2c1OCCCn1cc(CCOc2ccc4ccc(=O)oc4c2)nn1)CCc1cc2c(cc1-3)OCO2 [Compound 35]
3. COc1ccc2cc3[n+](cc2c1OCc1cn(-c2ccc4c(C)cc(=O)oc4c2)nn1)CCc1cc2c(cc1-3)OCO2 [Compound 45]
4. COc1ccc2cc3[n+](cc2c1OCCCS(N)(=O)=O)CCc1cc2c(cc1-3)OCO2 [Compound 47]
5. COc1ccc2cc3[n+](cc2c1OCc1cn(CCCCCOc2ccc4ccc(=O)oc4c2)nn1)CCc1cc2c(cc1-3)OCO2 [Compound 44]
6. COc1ccc2cc3[n+](cc2c1OCCCn1cc(COc2ccc(S(N)(=O)=O)cc2)nn1)CCc1cc2c(cc1-3)OCO2 [Compound 29]

["−2.0", "−1.5", "−2.5", "−3.0", "−2.0", "−1.5"]

###

For each record, write down the corresponding Selectivity index (SI) II/IX.
TARGET SYSTEM: hCA IX (Homo sapiens)
Construct: made in house
ASSAY NOTES: stopped-flow CO2 hydrase assay, hCA IX
Assay type: biochemical
DETAILS: hCA IX over hCA II
Give bare numbers.

Record excerpt, results attached:
INSERT INTO assay_data (compound, target_system, endpoint_value) VALUES
  ('COc1ccc2cc3[n+](cc2c1OCCCCCn1cc(COc2ccc(S(N)(=O)=O)cc2)nn1)CCc1cc2c(cc1-3)OCO2 [Compound 33]', 'hCA IX (Homo sapiens)', 76.1),
  ('COc1ccc2cc3[n+](cc2c1OCCCCn1cc(COc2ccc(S(N)(=O)=O)cc2)nn1)CCc1cc2c(cc1-3)OCO2 [Compound 31]', 'hCA IX (Homo sapiens)', 102.1),
  ('COc1ccc2cc3[n+](cc2c1OCCCS(N)(=O)=O)CCc1cc2c(cc1-3)OCO2 [Compound 47]', 'hCA IX (Homo sapiens)', 1.2),
  ('COc1ccc2cc3[n+](cc2c1OCCn1cc(-c2ccc(S(N)(=O)=O)cc2)nn1)CCc1cc2c(cc1-3)OCO2 [Compound 26]', 'hCA IX (Homo sapiens)', 42.4);

For each of the compounds below, note its Selectivity index (SI) II/IX.
1. COc1ccc2cc3[n+](cc2c1OCc1cn(-c2ccc(S(N)(=O)=O)cc2)nn1)CCc1cc2c(cc1-3)OCO2 [Compound 41]
2. COc1ccc2cc3[n+](cc2c1OCCCn1cc(COc2ccc(S(N)(=O)=O)cc2)nn1)CCc1cc2c(cc1-3)OCO2 [Compound 29]
3. COc1ccc2cc3[n+](cc2c1OCCCCn1cc(-c2ccc(S(N)(=O)=O)cc2)nn1)CCc1cc2c(cc1-3)OCO2 [Compound 30]
4. COc1ccc2cc3[n+](cc2c1OCCn1cc(COc2ccc(S(N)(=O)=O)cc2)nn1)CCc1cc2c(cc1-3)OCO2 [Compound 27]
5. COc1ccc2cc3[n+](cc2c1OCc1cn(-c2cccc(S(N)(=O)=O)c2)nn1)CCc1cc2c(cc1-3)OCO2 [Compound 40]

1. 8.5
2. 111.3
3. 112.4
4. 9.2
5. 23.1
